system: AmvR (Acinetobacter baumannii, UniProt A0A0D5YGI2)
Construct: gene ABUW_1678; AmvR (amvR amplified from A. baumannii ATCC17978 genomic DNA) carrying a C-terminal hexahistidine tag; dimer in solution
Sequence (A0A0D5YGI2 entry or part of it): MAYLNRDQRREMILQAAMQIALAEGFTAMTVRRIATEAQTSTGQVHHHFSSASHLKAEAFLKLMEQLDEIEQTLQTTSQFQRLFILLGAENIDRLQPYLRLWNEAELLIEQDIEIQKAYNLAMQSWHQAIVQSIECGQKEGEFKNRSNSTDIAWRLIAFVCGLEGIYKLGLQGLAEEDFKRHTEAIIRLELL
experiment description: nanoDSF isothermal analysis (Kd at […] °C); weak, DSF shift only +[…] °C
Format: binding
observation type: Kd

Problem: Any idea what its Kd is? The compound is NCCCCN [putrescine]
Solution: 260 µM

This collection of values is drawn from paper PMC8458285.
